# study-system: GRK2 (Homo sapiens)
# Construct: purchased SignalChem A14-10G
# Sequence (P25098 1-689): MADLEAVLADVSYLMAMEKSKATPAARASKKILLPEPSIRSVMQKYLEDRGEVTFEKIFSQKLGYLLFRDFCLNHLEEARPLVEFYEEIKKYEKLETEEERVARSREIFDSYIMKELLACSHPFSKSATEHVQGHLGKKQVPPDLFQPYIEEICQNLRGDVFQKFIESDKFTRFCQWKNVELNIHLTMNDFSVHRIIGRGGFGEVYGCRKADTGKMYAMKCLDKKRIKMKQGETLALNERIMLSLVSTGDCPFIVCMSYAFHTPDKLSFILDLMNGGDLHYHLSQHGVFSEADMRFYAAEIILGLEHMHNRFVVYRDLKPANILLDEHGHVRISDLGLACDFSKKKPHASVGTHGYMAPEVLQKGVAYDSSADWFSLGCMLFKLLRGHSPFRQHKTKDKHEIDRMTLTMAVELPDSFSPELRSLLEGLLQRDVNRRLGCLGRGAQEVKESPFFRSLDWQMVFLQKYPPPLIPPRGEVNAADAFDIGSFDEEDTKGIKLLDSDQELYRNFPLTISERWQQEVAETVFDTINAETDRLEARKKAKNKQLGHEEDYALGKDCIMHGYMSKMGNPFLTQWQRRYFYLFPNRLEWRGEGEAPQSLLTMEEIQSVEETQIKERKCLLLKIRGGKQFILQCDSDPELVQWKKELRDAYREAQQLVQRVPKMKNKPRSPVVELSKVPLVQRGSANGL
# measurement-description: GRK2 Inhibition Assay (TR-FRET, Example 7)
# Type: biochemical
# experimental-parameters: Enzyme Assay B, TR-FRET (Example 7); read-out: B: Enzymatic GRK2: IC50 (nM) (Example 7)
Under this convention, True denotes IC50 strictly below 9 nM and False denotes IC50 at or above 9 nM.

- compound: "O=C(NCc1cccc2c1OCC2)c1cccc(NCc2nnc(-c3ccncc3)n2CCO)c1"
  assigned-class: "True"
- compound: "Cn1c(CNc2cccc(C(=O)N[C@H]3CCOc4ccc(F)cc43)c2)nnc1-c1ccncn1"
  assigned-class: "False"
- compound: "Cc1cc2c(cc1CNC(=O)c1ccnc(NCc3nnc(-c4ccncn4)n3C)c1)OCCO2"
  assigned-class: "False"
- compound: "Cn1c(CNc2cccc(C(=O)N[C@H]3CCOc4cc(F)ccc43)c2)nnc1-c1ccncn1"
  assigned-class: "True"
- compound: "O=C(NCc1c(F)cccc1F)c1ccnc(NCc2nnc(-c3ccncc3)[nH]2)c1"
  assigned-class: "False"
- compound: "COc1cccc(OC)c1CNC(=O)c1cccc(NCc2nnc(-c3ccncc3)n2CCO)c1"
  assigned-class: "False"
- compound: "Cn1c(CNc2cccc(C(=O)N[C@@H]3CCOc4ccc(Br)cc43)c2)nnc1-c1ccncn1"
  assigned-class: "False"
- compound: "Cn1c(CNc2cccc(C(=O)N[C@H]3CCOc4c3ccc(F)c4F)c2)nnc1-c1ccncn1"
  assigned-class: "False"
- compound: "O=C(NCc1ccncc1Cl)c1cccc(NCc2nnc(-c3ccncn3)n2CCO)c1"
  assigned-class: "True"
- compound: "Cn1c(CNc2cccc(C(=O)N[C@@H]3CCOc4cc(Br)ccc43)c2)nnc1-c1ccncn1"
  assigned-class: "True"
- compound: "Cn1c(CNc2cccc(C(=O)N[C@H]3CCOc4ccc(Br)cc43)c2)nnc1-c1ccncn1"
  assigned-class: "True"
- compound: "Cn1c(CNc2cccc(C(=O)NCc3ccc4nccn4c3)c2)nnc1-c1ccncn1 [drawing 611]"
  assigned-class: "False"
- compound: "Cc1ccc2c(c1)[C@H](NC(=O)c1cccc(NCc3nnc(-c4ccncn4)n3C)c1)CCO2"
  assigned-class: "True"
